# METHOD NOTES: Toxicity liver stage against HepG2, at 10uM
# Format: cell-based
# Design: test concentration 10 uM, cell line HepG2-A16-CD81EGFP
# EXPERIMENTAL CONTEXT: human, HepG2-A16-CD81EGFP cells; read-out: INHIBITION
OBSERVED PROPERTY: cytotoxicity at 10 µM (%)

• CCn1cnnc1C1CCN(C(=O)c2cccc3c2ccn3C)CC1 = -8
• CC(C)=CCCC1(C)CCC(=O)N(CCNc2nc(C)cc(=O)[nH]2)C1 (centres undefined) = 3.18
• CC(=O)c1ccc(F)cc1-c1cc(NCCO)nc2[nH]ccc12 = -5.72
• CCCS(=O)(=O)N[C@H]1CN(c2ncccc2C(N)=O)C[C@@H]1C(C)C = 5.78
• CSc1ccc(NCc2csc(C)n2)cc1F = -6.54
• CC(Nc1ncnc2c1NC(=O)CN2)c1ccccn1 (centres undefined) = 7.66
• CCn1cnnc1CN(C)c1nccc(C2CCCC2)n1 = 0.998
• COCCCN(C)C1CCCN(Cc2noc(C3CC3)n2)C1 (centres undefined) = -15.4
• O=C1NCC2(CCCN(Cc3ccncc3)C2)Oc2ccccc21 (centres undefined) = -13.8
• CCOCc1nc2c(c(N3CC=CC3)n1)CCN(Cc1ccco1)CC2 = -3.81
• CC1(C(=O)NC2CCCC2)CCCN(c2cnccn2)C1 (centres undefined) = -5.81
• Fc1cnc(N2C[C@@H]3COC[C@]3(COc3ccccn3)C2)nc1 = -5.43
• CCOc1ccc(NC(=O)NCCCN(C)S(C)(=O)=O)cc1C = 2.79
• O[C@H]1CN(Cc2ccnc(N3CCCC3)n2)CC[C@@]12CCCO2 = 3.62
• O=C1CCOCCN1Cc1ccc(Cl)c(F)c1 = -3.31
• Cc1ccc(C2(O)CCN(C(=O)Cn3cc(C)c(=O)[nH]c3=O)CC2)nc1 = -7.22
• CS(=O)(=O)CCNC(=O)N(Cc1ccoc1)C1CCCCC1 = 5.72
• COc1cccc2c(=O)n(Cc3ccnc(C)c3)cnc12 = -0.0198
• Cc1ccc(CN(C)C(=O)NCC(C)(C)S(C)(=O)=O)s1 = 15.6
• CN1CCCN(c2nc3c(cnn3C(C)(C)C)c(=O)[nH]2)CC1 = -11.9
• c1ccc(C[C@H]2CN(Cc3nccs3)CC[C@@H]2OCC2CC2)cc1 = -62.3
• CCCN1CCC(N2CCN(c3cc(C)nc(COC)n3)CC2)CC1 = -0.332
• COc1ccc(CCN)cc1-c1ccc(S(C)(=O)=O)cc1 = -6.23
• Cc1cc(CN[C@@H](C)C(N)=O)c(C)s1 = -6.55
